Biological target: LRRK2 (Homo sapiens, UniProt Q5S007, G2019S)
Construct: purchased Invitrogen PV4882 (lot 567054A)
Sequence (Q5S007 whole entry G2019S): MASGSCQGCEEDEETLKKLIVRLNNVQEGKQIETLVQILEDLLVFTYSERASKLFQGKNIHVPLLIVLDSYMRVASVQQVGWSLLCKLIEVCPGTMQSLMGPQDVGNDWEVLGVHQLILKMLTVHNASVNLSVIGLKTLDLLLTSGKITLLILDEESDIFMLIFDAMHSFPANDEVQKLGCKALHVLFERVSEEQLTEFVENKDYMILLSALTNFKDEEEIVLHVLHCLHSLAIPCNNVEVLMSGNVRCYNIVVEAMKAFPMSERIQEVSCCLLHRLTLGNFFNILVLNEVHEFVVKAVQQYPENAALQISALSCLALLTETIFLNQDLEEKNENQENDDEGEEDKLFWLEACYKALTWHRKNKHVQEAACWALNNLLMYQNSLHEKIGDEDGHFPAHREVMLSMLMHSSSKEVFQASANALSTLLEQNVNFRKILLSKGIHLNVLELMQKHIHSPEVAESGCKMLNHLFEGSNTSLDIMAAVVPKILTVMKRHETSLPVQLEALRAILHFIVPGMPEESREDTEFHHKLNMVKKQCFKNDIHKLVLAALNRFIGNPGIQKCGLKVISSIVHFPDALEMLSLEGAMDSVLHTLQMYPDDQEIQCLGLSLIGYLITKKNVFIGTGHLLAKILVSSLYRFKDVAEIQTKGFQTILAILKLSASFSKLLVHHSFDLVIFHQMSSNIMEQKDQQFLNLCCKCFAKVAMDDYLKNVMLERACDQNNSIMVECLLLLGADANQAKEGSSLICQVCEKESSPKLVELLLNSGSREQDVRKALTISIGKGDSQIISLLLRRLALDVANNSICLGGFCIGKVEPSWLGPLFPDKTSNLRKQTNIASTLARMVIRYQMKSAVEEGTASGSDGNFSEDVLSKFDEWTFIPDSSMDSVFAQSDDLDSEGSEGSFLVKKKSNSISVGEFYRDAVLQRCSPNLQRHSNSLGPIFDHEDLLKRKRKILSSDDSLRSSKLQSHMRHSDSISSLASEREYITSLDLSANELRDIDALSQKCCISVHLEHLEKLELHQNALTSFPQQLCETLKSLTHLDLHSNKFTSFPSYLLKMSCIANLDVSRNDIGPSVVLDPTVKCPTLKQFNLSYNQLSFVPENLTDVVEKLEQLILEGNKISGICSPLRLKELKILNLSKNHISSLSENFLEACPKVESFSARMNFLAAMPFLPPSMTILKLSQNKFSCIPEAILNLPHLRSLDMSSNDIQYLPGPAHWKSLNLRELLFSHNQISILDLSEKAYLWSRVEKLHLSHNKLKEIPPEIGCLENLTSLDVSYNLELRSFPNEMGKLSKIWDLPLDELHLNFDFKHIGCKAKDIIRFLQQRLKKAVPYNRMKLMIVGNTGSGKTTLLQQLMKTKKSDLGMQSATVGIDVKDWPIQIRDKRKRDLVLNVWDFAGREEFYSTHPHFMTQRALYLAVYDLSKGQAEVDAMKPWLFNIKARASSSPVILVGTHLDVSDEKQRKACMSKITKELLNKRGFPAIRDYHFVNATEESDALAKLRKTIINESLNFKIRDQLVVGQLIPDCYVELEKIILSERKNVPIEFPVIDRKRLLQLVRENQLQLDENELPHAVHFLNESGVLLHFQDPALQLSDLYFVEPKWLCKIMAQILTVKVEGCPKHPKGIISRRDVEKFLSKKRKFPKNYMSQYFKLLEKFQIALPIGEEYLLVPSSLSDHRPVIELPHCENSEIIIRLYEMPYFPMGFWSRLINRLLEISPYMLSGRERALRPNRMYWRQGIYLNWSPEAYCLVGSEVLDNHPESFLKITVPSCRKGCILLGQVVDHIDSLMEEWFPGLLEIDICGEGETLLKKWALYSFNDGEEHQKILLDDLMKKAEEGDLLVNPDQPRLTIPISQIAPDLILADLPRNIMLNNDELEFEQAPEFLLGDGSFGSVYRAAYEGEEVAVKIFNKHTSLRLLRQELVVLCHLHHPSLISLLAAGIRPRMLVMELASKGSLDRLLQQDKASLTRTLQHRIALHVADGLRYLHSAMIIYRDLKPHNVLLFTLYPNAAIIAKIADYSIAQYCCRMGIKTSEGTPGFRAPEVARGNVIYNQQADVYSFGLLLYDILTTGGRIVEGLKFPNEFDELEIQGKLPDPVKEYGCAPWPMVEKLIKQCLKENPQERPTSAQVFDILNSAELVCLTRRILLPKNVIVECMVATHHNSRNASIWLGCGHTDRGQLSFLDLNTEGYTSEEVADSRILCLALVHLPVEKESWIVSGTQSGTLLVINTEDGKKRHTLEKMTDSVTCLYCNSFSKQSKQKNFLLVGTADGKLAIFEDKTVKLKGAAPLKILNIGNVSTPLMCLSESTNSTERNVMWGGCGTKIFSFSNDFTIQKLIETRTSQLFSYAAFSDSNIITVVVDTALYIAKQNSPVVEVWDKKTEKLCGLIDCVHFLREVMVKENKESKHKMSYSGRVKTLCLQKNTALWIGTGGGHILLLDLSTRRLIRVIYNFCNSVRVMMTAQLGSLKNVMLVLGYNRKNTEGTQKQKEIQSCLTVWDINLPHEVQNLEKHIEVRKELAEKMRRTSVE
Assay: In Vitro LRRK2 Assay (LabChip 3000, fluorescently-labeled peptide substrate, ATP)
Assay type: biochemical
Conditions: read-out: LRRK2 Ki (KI), Table 8
I'd be grateful if you could share measured Ki for these entries.
One number for each entry, in nM.

Take a look at these entries with their results.
CNc1nc(Nc2cn(C3CCN(C)CC3F)nc2C)ncc1C(F)(F)F (stereo not shown)    1.6
CCNc1nc(Nc2cn(C(C)(C)c3nnc(C)o3)nc2C)ncc1C(F)(F)F    1.2
CNc1nc(Nc2cnn(C[C@@H](C)OC)c2C)ncc1C(F)(F)F    6.3
CNc1nc(Nc2cn(C3CCC(=O)NC3)nc2C)ncc1C(F)(F)F (stereo not shown)    9.7
CNc1nc(Nc2cn(-c3ccnc(C)c3)nc2C)ncc1C(F)(F)F    6.9
CNc1nc(Nc2ccnn2C)ncc1Br    5.4
CNc1nc(Nc2cnn(C3CCCOC3)c2C)ncc1C(F)(F)F (stereo not shown)    1.8
CCNc1nc(Nc2cn(C3CCN(CCOC)CC3)nc2C)ncc1C(F)(F)F    5.4
CNc1nc(Nc2c[nH]nc2C)ncc1C(F)(F)F    9
CCNc1nc(Nc2cnn(CC(C)(C)C#N)c2Cl)ncc1C(F)(F)F    0.7

Dear colleague, could you send me Ki for each of the items below? Thanks.
1. CNc1nc(Nc2cnn(-c3ccc(Cl)cc3)c2C)ncc1C(F)(F)F
2. CCNc1nc(Nc2cn(C(C)(C)c3ncn(C)n3)nc2C)ncc1C(F)(F)F
3. Cc1nn(S(C)(=O)=O)cc1Nc1ncc(C(F)(F)F)c(NC2CC2)n1
4. CNc1nc(Nc2cnn(CCF)c2C)ncc1C(F)(F)F
5. CCS(=O)(=O)n1ncc(Nc2ncc(C(F)(F)F)c(NC)n2)c1C
6. CNc1nc(Nc2cnn(Cc3ccn(C)n3)c2C)ncc1C(F)(F)F

1: 0.3; 2: 0.3; 3: 0.4; 4: 1.8; 5: 7.2; 6: 0.6

I need Ki for every entry listed below, if you could help.
1. CNc1nc(Nc2cn(CC(O)C(C)C)nc2C)ncc1C(F)(F)F (stereo not shown)
2. CNc1nc(Nc2cn(C3CCC(OC)C3)nc2C)ncc1C(F)(F)F (stereo not shown)
3. CNc1nc(Nc2cnn(CC3(C)COC3)c2Cl)ncc1C(F)(F)F

1. 10.8
2. 19
3. 5.6

====

Target: LRRK2 (Homo sapiens, UniProt Q5S007, G2019S)
Construct: purchased Invitrogen PV4882 (lot 567054A)
Experiment: In Vitro LRRK2 Assay (LabChip 3000, fluorescently-labeled peptide substrate, ATP)
Format: biochemical
Details: read-out: LRRK2 Ki (KI), Table 8
pKi: −log10 of the molar value.
Entry flag: met if pKi reaches 8; not met if it does not.

Study these solved cases before continuing.
CCNc1nc(Nc2cnn(C)c2C2CCC2)ncc1C(F)(F)F    met
CNc1nc(Nc2cn(C(F)F)nc2C)ncc1Br    met
CNc1nc(Nc2cnn(-c3ccnc(C)c3)c2C)ncc1C(F)(F)F    met
CNc1nc(Nc2cn(CC(C)(C)O)nc2C(F)(F)F)ncc1C(F)(F)F    not met
CNc1nc(Nc2cn(Cc3ccccn3)nc2C)ncc1C(F)(F)F    met

Quick check: does CCNc1nc(Nc2cn(CC(C)(C)O)nc2C(C)(C)C)ncc1C(F)(F)F have pKi greater than or equal to 8?
not met

Confirm if pKi reported for the compound CCNc1nc(Nc2cn(-c3ccc(C(=O)N(C)C)cc3)nc2C)ncc1C(F)(F)F is 8 or above.
met
